Test system: Staphylococcus aureus
Procedure Summary: Antibacterial activity against methicillin-resistant Staphylococcus aureus isolate M5 after 16 to 20 hrs by broth microdilution method
Assay type: functional
Provide the reported MIC of each item.
Give bare numbers, in µg/mL.

Look over these answered cases.
>>> print(df.to_string())
                              smiles_string  value_kind  endpoint_result
0     CCCCCCCCN(CCCCCCCC)C(=O)[C@H](N)CO.Cl         MIC                4
1  CCCCCCCCCN(CCCCCCCCC)C(=O)[C@@H](N)CCCCN.Cl.Cl         MIC                1

Dear colleague, could you please provide MIC for the compounds listed below?
1. CCCCCCCCCCN(CCCCCCCCCC)C(=O)[C@@H](N)CCCCN.Cl.Cl
2. CCCCCCCCCCN(CCCCCCCCCC)C(=O)[C@@H](N)CCCN=C(N)N.Cl.Cl.Cl
3. CCCCCCCCN(CCCCCCCC)C(=O)[C@@H](N)CC(C)C.Cl

**A:**
1. 2
2. 2
3. 4

----------
Answer each item with its documented MIC.
Test system: Klebsiella pneumoniae
Procedure Summary: Antibacterial activity against carbapenemase-producing Klebsiella pneumoniae isolate K9 after 16 to 20 hrs by broth microdilution method
Format: functional
One number for each entry, in µg/mL.

Worked examples, 4 molecules total:
>>> print(df.to_string())
                                   molecule  value_kind  unit_spec  endpoint_result
0  CCCCCCCCCCCN(CCCCCCCCCCC)C(=O)[C@@H](N)CCCCN.Cl.Cl         MIC      µg/mL               32
1  CCCCCCCCCN(CCCCCCCCC)C(=O)[C@@H](N)CCCN=C(N)N.Cl.Cl.Cl         MIC      µg/mL                4
2  CCCCCCCCCCN(CCCCCCCCCC)C(=O)[C@@H](N)CCCCN.Cl.Cl         MIC      µg/mL                4
3  CCCCCCCCN(CCCCCCCC)C(=O)[C@@H](N)C(C)O.Cl (stereo not given in full)         MIC      µg/mL               64

Now turn to the next molecule.
**Q:** Name the recorded MIC for CCCCCCCCN(CCCCCCCC)C(=O)[C@H](C)N.Cl .
**A:** 16

----------
Exercise: state measured log10 MIC for each of the molecules provided.
Tested on: Staphylococcus aureus
Procedure Summary: Antibacterial activity against methicillin-resistant Staphylococcus aureus isolate M9 after 16 to 20 hrs by broth microdilution method
Format: functional
Heads up: the numbers are on a log10 scale; they represent MIC in µg/mL.

Example entries begin here.
In [3]: df
Out[3]:
                                   molecule  endpoint_result
0     CCCCCCCCN(CCCCCCCC)C(=O)[C@H](N)CO.Cl             0.60
1  CCCCCCCCN(CCCCCCCC)C(=O)[C@@H](N)CCCN=C(N)N.Cl.Cl.Cl             0.00
2  CCCCCCCCCCN(CCCCCCCCCC)C(=O)[C@@H](N)CCCCN.Cl.Cl             0.00
3  CCCCCCCCCCCN(CCCCCCCCCCC)C(=O)[C@@H](N)CCCCN.Cl.Cl             0.60
4      CCCCCCCCN(CCCCCCCC)C(=O)[C@H](C)N.Cl             0.60
5  CCCCCCCCCN(CCCCCCCCC)C(=O)[C@@H](N)CCCN=C(N)N.Cl.Cl.Cl             0.30

Please give log10 MIC for each item listed below.
1. CCCCCCCCCCN(CCCCCCCCCC)C(=O)[C@@H](N)CCCN=C(N)N.Cl.Cl.Cl
2. CCCCCCCCN(CCCCCCCC)C(=O)[C@@H](N)CO.Cl
3. CCCCCCCN(CCCCCCC)C(=O)[C@@H](N)CCCCN.Cl.Cl
4. CCCCCCCCCN(CCCCCCCCC)C(=O)[C@@H](N)CCCCN.Cl.Cl
5. CCCCCCCCN(CCCCCCCC)C(=O)[C@@H](N)C(C)O.Cl (some centres not stated)
6. CCCCCCCCN(CCCCCCCC)C(=O)[C@@H](N)[C@@H](C)CC.Cl
7. CCCCCCCCN(CCCCCCCC)C(=O)[C@@H](N)CC(C)C.Cl

**A:**
0.30
0.60
0.60
0.00
0.90
0.60
0.60

----------
System: Enterobacteriaceae
Procedure Summary: Antibacterial activity against NDM-1-producing Enterobacteriaceae isolate N9 after 16 to 20 hrs by broth microdilution method
Assay type: functional
Value Kind: MIC (µg/mL)
Numbers only, in µg/mL.

In [3]: df
Out[3]:
                              smiles_string  endpoint_result
0  CCCCCCCCCN(CCCCCCCCC)C(=O)[C@@H](N)CCCN=C(N)N.Cl.Cl.Cl                4
1  CCCCCCCN(CCCCCCC)C(=O)[C@@H](N)CCCCN.Cl.Cl               16
2     CCCCCCCCN(CCCCCCCC)C(=O)[C@H](N)CO.Cl               16
3  CCCCCCCCCCN(CCCCCCCCCC)C(=O)[C@@H](N)CCCN=C(N)N.Cl.Cl.Cl                8
4    CCCCCCCCN(CCCCCCCC)C(=O)[C@@H](N)CO.Cl               32
5  CCCCCCCCCN(CCCCCCCCC)C(=O)[C@@H](N)CCCCN.Cl.Cl                4

Items follow; give MIC for each.
1. CCCCCCCCCCN(CCCCCCCCCC)C(=O)[C@@H](N)CCCCN.Cl.Cl
2. CCCCCCCCN(CCCCCCCC)C(=O)[C@@H](N)CCCN=C(N)N.Cl.Cl.Cl
3. CCCCCCCCCCCN(CCCCCCCCCCC)C(=O)[C@@H](N)CCCCN.Cl.Cl
4. CCCCCCCCN(CCCCCCCC)C(=O)[C@H](C)N.Cl

**A:**
1. 4
2. 8
3. 32
4. 64

**Q:** May I ask what MIC has been recorded for CCCCCCCCN(CCCCCCCC)C(=O)[C@@H](N)CCCCN.Cl.Cl ?
**A:** 8

----------
Test system: Staphylococcus aureus
Procedure Summary: Antibacterial activity against methicillin-resistant Staphylococcus aureus isolate M5 after 16 to 20 hrs by broth microdilution method
Type: functional
Mark each entry yes (1) if its MIC sits below 4 µg/mL, and no (0) for all others.

Please review the entries below; each comes with its answer.
In [3]: df
Out[3]:
                                   compound  qualitative_label
0  CCCCCCCCCCN(CCCCCCCCCC)C(=O)[C@H](N)CO.Cl             no (0)
1  CCCCCCCCN(CCCCCCCC)C(=O)[C@@H](N)CCCCN.Cl.Cl            yes (1)
2  CCCCCCCCCN(CCCCCCCCC)C(=O)[C@@H](N)CCCN=C(N)N.Cl.Cl.Cl            yes (1)

Kindly consider the entry below.
**Q:** Below 4 µg/mL on MIC? Entry CCCCCCCCN(CCCCCCCC)C(=O)[C@@H](N)C(C)O.Cl (stereo partly specified)
**A:** no (0)

----------
System: Staphylococcus aureus
Procedure Summary: Antibacterial activity against methicillin-resistant Staphylococcus aureus isolate M4 after 16 to 20 hrs by broth microdilution method
Format: functional
Value Kind: MIC (µg/mL)
One number for each entry, in µg/mL.

Observe how each entry below is paired with its result.
>>> df
                                   molecule         assayed_target  endpoint_result
0  CCCCCCCCN(CCCCCCCC)C(=O)[C@@H](N)CC(C)C.Cl  Staphylococcus aureus                2
1  CCCCCCCCCCN(CCCCCCCCCC)C(=O)[C@H](N)CO.Cl  Staphylococcus aureus               32
2     CCCCCCCCN(CCCCCCCC)C(=O)[C@H](N)CO.Cl  Staphylococcus aureus                4
3  CCCCCCCCN(CCCCCCCC)C(=O)[C@@H](N)[C@@H](C)CC.Cl  Staphylococcus aureus                4
4  CCCCCCCCN(CCCCCCCC)C(=O)[C@@H](N)C(C)O.Cl (some centres not stated)  Staphylococcus aureus                4
5  CCCCCCCCN(CCCCCCCC)C(=O)[C@@H](N)Cc1ccccc1.Cl  Staphylococcus aureus               16
6  CCCCCCCCN(CCCCCCCC)C(=O)[C@@H](N)CCCCN.Cl.Cl  Staphylococcus aureus                1
7    CCCCCCCCN(CCCCCCCC)C(=O)[C@@H](N)CO.Cl  Staphylococcus aureus                4
8  CCCCCCCCCN(CCCCCCCCC)C(=O)[C@@H](N)CCCCN.Cl.Cl  Staphylococcus aureus                2
9  CCCCCCCCN(CCCCCCCC)C(=O)[C@@H](N)CCCN=C(N)N.Cl.Cl.Cl  Staphylococcus aureus                1

I need MIC for every entry listed below, if you could help.
1. CCCCCCCCCCN(CCCCCCCCCC)C(=O)[C@@H](N)CCCCN.Cl.Cl
2. CCCCCCCCN(CCCCCCCC)C(=O)[C@H](C)N.Cl
3. CCCCCCCN(CCCCCCC)C(=O)[C@@H](N)CCCCN.Cl.Cl
4. CCCCCCCCCCN(CCCCCCCCCC)C(=O)[C@@H](N)CO.Cl
5. CCCCCCCCCN(CCCCCCCCC)C(=O)[C@@H](N)CCCN=C(N)N.Cl.Cl.Cl
6. CCCCCCCCCCN(CCCCCCCCCC)C(=O)[C@@H](N)CCCN=C(N)N.Cl.Cl.Cl
7. CCCCCCCCCCCN(CCCCCCCCCCC)C(=O)[C@@H](N)CCCCN.Cl.Cl

**A:**
1: 2; 2: 4; 3: 16; 4: 4; 5: 1; 6: 2; 7: 2
